Assay Conditions: in acetonitrile, 283.15 K
Experimental Readout: solubility (mole fraction)

Line Notation: CCCCCCCCCCCC[N+](C)(C)CCOc1ccccc1.[Br-]
Experimental Readout: solubility (mole fraction)
Reported Measurement: 0.00445

---

Assay Conditions: in DMF, 298.15 K

Line Notation: CCCCCCCCCCCC[N+](C)(C)CCOc1ccccc1.[Br-]
solubility (mole fraction): 0.0467

---

Assay Conditions: in acetonitrile, 308.15 K

Line Notation: CCCCCCCCCCCC[N+](C)(C)CCOc1ccccc1.[Br-]
solubility (mole fraction): 0.0188

---

Assay Conditions: in isopropanol, 298.15 K

Line Notation: CCCCCCCCCCCC[N+](C)(C)CCOc1ccccc1.[Br-]
solubility (mole fraction): 0.105
